Assay: Pharmacokinetic test in mice (IV and PO)
Format: in vivo, BALB/c mice
Details: mice, IV 2 mg/kg
ASSAY_METRIC: CLz (mL/min/kg)

MOLECULE: O=S1(=O)c2cc(-c3nnc(C(F)F)o3)ccc2CN1C(c1ccccn1)[C@H](O)c1ccccn1 (stereo partly shown)
UNITS_TEXT: mL/min/kg
QUANTITATIVE_READOUT: 7.82
--
MOLECULE: O=C(N[C@H]1[C@H](N2Cc3ccc(-c4nnc(C(F)F)o4)cc3S2(=O)=O)CCCC1(F)F)C(F)F
UNITS_TEXT: mL/min/kg
QUANTITATIVE_READOUT: 4.35
--
MOLECULE: O=C(N[C@@H]1CCCC[C@H]1N1Cc2ccc(-c3nnc(C(F)F)o3)cc2S1(=O)=O)C(F)F
UNITS_TEXT: mL/min/kg
QUANTITATIVE_READOUT: 6
--
MOLECULE: CC(F)(F)C(=O)N[C@@H]1CCCC[C@H]1N1Cc2ccc(-c3nnc(C(F)F)o3)cc2S1(=O)=O
UNITS_TEXT: mL/min/kg
QUANTITATIVE_READOUT: 7.1
